Numbers sourced from the supplement of paper PMC8728848.

biological target: Fuc(a1-2)[GalNAc(a1-3)]Gal(b1-3)GlcNAc(b1-6)GalNAc; assay: glycan array binding signal (z-score within array); higher = stronger binding; settings: glycan notation: IUPAC condensed, linker removed
This is one part of a sample in which the strongest signals are shown more often than they occur.
VALUE KIND: glycan array binding signal (z-score)

BINDER	NUMBER
Gal 3C (Homo sapiens), P17931 (protein) YGAPAGPLIVPYNLPLPGGVVPRMLITILGTVKPNANRIALDFQRGNDVAFHFNPRFNENNRRVIVCNTKLDNNWGREERQSVFPFESGKPFKIQVLVEPDHFKVAVNDAHLLQYNHRVKKLNEISKLGISGDIDLTSASYTMI	-0.229
MAL-II (Maackia amurensis), P93248 (protein) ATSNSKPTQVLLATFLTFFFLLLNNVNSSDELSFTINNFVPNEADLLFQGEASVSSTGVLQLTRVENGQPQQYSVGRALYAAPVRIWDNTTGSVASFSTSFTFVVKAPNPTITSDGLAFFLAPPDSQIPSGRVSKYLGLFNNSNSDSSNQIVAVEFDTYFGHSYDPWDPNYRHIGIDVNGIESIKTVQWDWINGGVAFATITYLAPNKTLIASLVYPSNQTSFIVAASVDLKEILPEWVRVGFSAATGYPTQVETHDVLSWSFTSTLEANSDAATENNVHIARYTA	-0.266
cFel (Cyprinus carpio), P68512 (protein) LDCTVIDGNLKQIDAGSGSVVGVNNLNETFVLIDNVFTKISGSLKHFSVGPAGQLGVNTANNIFKYQSGGFVQLAGLLKQVDAGGDQIIAGVNMYDDIYCLNMDANNKWPSSNTPWVQINGKLKYYSCGPYSCWGVNSNDQIFIMKDVSSNVCSGSGSFINIPGLLSMIEVATDGSVFGVNSQGNLYQRTGVTRSKPDGTDWISMVACPNGHKHVSFDLGVLWLVCVDGSIRKCILTD	2.93
CSA (Cytisus scoparius), P29257 (protein) SEELSFSFTKFKTDQKNLILQRDALITPTGKLQLTTVENGKPAAYSLGRALYSTPIHIWDKSTGDEASFATFFSFVISDAPNPSTAATDGLAFFLAPADTQPQSAGGYLGLFEKDSSYNSSNQIVAVEFDTYYNSAWDPQTNPHIGIDVNTIKSKKVSSWGFKNGNVATVLITYQPSSKSLVASLVYPSGQTSDKTSYIISANVDLKATVPEWVRIGFSATTGQTDNYIETHDILSWSFKSKLPATKN	-0.214
Arath Fbox (Arabidopsis thaliana), NP_178341.1 (protein) EFTWGRKRRVKSESSPFDSFPEDCISYIISFTNPRDACVAATVSKTFESTVKSDIIWEKFLPADYESLIPPSRVFSSKKELYFSLCNDPVLFDDDKKSVWLEKASGKRCLMLSAMNLSIIWGDNPQYWQWIPIPESRFEKVAKLRDVCWFEIRGRTNTRVLSPRTRYSAYIVFKGVDKCYGFQNVAIEAAVGVVGQEPSRRLICFSEAIRRGRRNVVKPKQREDGWMEIELGEFFNDGGIMDNDEIEMSALETKQLNRKCGLIIQGIEIRPAKILAAAAASFLEQKLISEEDLNSAVDHHHHHH	-0.626
